Quick list: % of Initial Apical Mass on Basolateral Side (2 h) per entry.
# Test system: human bronchial epithelial (HBE) cells
# ASSAY_INFO: Airway surface liquid drug (ASL) clearance and metabolism by human airway epithelium
# Format: in vitro ADME
# CONDITION_SET: Table 4: HBE cells, 25 μL of 25 μM apical, 2 h; mean ± SD
ASSAY_READOUT: % of Initial Apical Mass on Basolateral Side (2 h) (%)

>  <COMPOUND>
CCCCCCN(CCCN[C@@H](Cc1ccc2cc(CCCCNC(=N)NC(=O)c3nc(Cl)c(N)nc3N)ccc2c1)C(N)=O)C[C@H](O)[C@@H](O)[C@H](O)[C@H](O)CO [IX-m]

>  <RECORDED_RESULT>
1.1

$$$$
>  <COMPOUND>
CCCCCCN(CCCN[C@@H](Cc1ccc(CCCCNC(=N)NC(=O)c2nc(Cl)c(N)nc2N)cc1)C(N)=O)C[C@H](O)[C@@H](O)[C@H](O)[C@H](O)CO [XVII-d]

>  <RECORDED_RESULT>
1.9

$$$$
>  <COMPOUND>
N=C(NCCCCc1ccc2cc(CC[C@H](NCCCN(C[C@H](O)[C@@H](O)[C@H](O)[C@H](O)CO)C[C@H](O)[C@@H](O)[C@H](O)[C@H](O)CO)C(N)=O)ccc2c1)NC(=O)c1nc(Cl)c(N)nc1N [XIII-bb]

>  <RECORDED_RESULT>
4.2

$$$$
>  <COMPOUND>
CCCCCCN(CCCN[C@@H](Cc1ccc(CCCCNC(=N)NC(=O)c2nc(Cl)c(N)nc2N)c2ccccc12)C(N)=O)C[C@H](O)[C@@H](O)[C@H](O)[C@H](O)CO [VIII-d]

>  <RECORDED_RESULT>
2.0

$$$$

====

# Test system: human bronchial epithelial (HBE) cells
# ASSAY_INFO: Airway surface liquid drug (ASL) clearance and metabolism by human airway epithelium
# Format: in vitro ADME
# CONDITION_SET: Table 4: HBE cells, 25 μL of 25 μM apical, 2 h; mean ± SD
ASSAY_READOUT: % on Basolateral Side as Metabolites (2 h)

>  <COMPOUND>
CCCCCCN(CCCN[C@@H](CCc1ccc(CCCCNC(=N)NC(=O)c2nc(Cl)c(N)nc2N)cc1)C(N)=O)C[C@H](O)[C@@H](O)[C@H](O)[C@H](O)CO [III-d]

>  <RECORDED_RESULT>
None

$$$$
>  <COMPOUND>
N=C(NCCCCc1ccc(C[C@H](NCCCN(C[C@H](O)[C@@H](O)[C@H](O)[C@H](O)CO)C[C@H](O)[C@@H](O)[C@H](O)[C@H](O)CO)C(N)=O)cc1)NC(=O)c1nc(Cl)c(N)nc1N [XVI-ee]

>  <RECORDED_RESULT>
None

$$$$
>  <COMPOUND>
N=C(NCCCCc1ccc(C[C@H](NCCCN(C[C@H](O)[C@@H](O)[C@H](O)[C@H](O)CO)C[C@H](O)[C@@H](O)[C@H](O)[C@H](O)CO)C(N)=O)c2c1CCCC2)NC(=O)c1nc(Cl)c(N)nc1N [XI-cc]

>  <RECORDED_RESULT>
None

$$$$
